experimental_readout: melting point

Input "COc1cc(CC2=C(C)C(=O)c3cc(OC)ccc3C2=O)cc(OC)c1" . Output melting point: 151 to 153 °C

Input "COc1cc(CC2=C(C)C(=O)c3ccc(OC)cc3C2=O)cc(OC)c1" . Output melting point: 149 °C

Input "COc1ccc2c(c1)C(=O)C(C)=C(Cc1ccc(Br)cc1)C2=O" . Output melting point: 149 to 151 °C

Input "COc1cc2c(cc1OC)C(=O)C(Cc1ccc(C(F)(F)F)cc1)=C(C)C2=O" . Output melting point: > 200 °C (dec.)

Input "CC1=C(Cc2ccc(Br)cc2)C(=O)c2ccc(F)cc2C1=O" . Output melting point: 107 °C

Input "CC1=C(Cc2ccc(F)c(C(F)(F)F)c2)C(=O)c2ccc(F)cc2C1=O" . Output melting point: 106 to 107 °C

Input "COc1ccc2c(c1)C(=O)C(Cc1ccc(Br)cc1)=C(C)C2=O" . Output melting point: 135 to 137 °C

Input "CC1=C(Cc2ccc(Br)cc2)C(=O)c2cccc(C)c2C1=O" . Output melting point: 116 to 118 °C

Input "CC1=C(Cc2ccc(Br)cc2)C(=O)c2cc(C)c(C)cc2C1=O" . Output melting point: 129 to 130 °C
